# SYSTEM TESTED: Human CD79B Protein, His Tag (MALS verified), Cat. No. #CDB-H52H3-1mg, ACRO (human) (UniProt P40259)
# Sequence (P40259 29-159 limits assumed): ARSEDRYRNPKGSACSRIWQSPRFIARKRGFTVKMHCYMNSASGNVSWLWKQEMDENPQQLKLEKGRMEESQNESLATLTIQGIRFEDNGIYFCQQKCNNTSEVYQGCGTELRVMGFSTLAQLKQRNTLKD
# ASSAY COMMENT: ELISA on coated antigen, anti-myc detection; 2ug antibody added
Could you label it t if measured OD450 nm is 0.3 OD450 or higher, and f otherwise?

Example cases with answers are listed next.
anti-CD79B single-domain antibody JYB14 (VHH, Alpaca VHH from a phage library; ELISA detected with an anti-myc antibody; a myc tag is not described; not shown: His-tag protein at the C-terminal end) VHH: DVQLQESGGGLVQPGGSLSLTCTASISSLTIWVRAWHRQAPGKQRELVAAINSDGQTMYADSVKGRFTISRDNAKTTVSLQMDSLKPEDTAVYYCNVVTPNGQQYWGQGTQVTVSS    t
anti-CD79B single-domain antibody JYB8 (VHH, not shown: small tags and cut ends) VHH: DVQLQESGGGLMQPGGSLSLTCTASISSLSIWVRAWHRQAPGKQRELVAAINSDGQTMYADSVKGRFTISRDSAKTTVSLQMDSLKPEDTAVYYCNVVTPKGQQYWGQGTQVTVSS    t

Q: Does anti-CD79B single-domain antibody JYB4 (VHH, Alpaca VHH from a phage library; not shown: His-tag protein at the C-terminal end) VHH: DVQLQESGGGLVQPGGSLRLSCAASGFAFSLYAMSWARQAPGKGLEWVSDIYGDDDSRRNYADSVKGRFTISRDNAKNTVYLQMTNLQPEDTALYYCGKGRDGTRWSAREYEYRGQGTQVTVSS have a reported OD450 nm of at least 0.3 OD450?
Result: t

Q: Quick check: does anti-CD79B single-domain antibody JYB10 (VHH, Alpaca VHH from a phage library; ELISA detected with an anti-myc antibody; a myc tag is not described; not shown: His-tag protein at the C-terminal end) VHH: DVQLQESGGGLVQPGGSLSLSCAASISSSSIWVRAWHRQAPGKQRELVAAINNDGQTMYADSVKGRFTISRDNAKTTVSLQMNSLKPEDTAVYYCNVVTPKGHQYWGQGTQVTVSS have OD450 nm greater than or equal to 0.3 OD450?
Result: f
